Numbers sourced from PubChem BioAssay (EPA / NIEHS).

read-out: CD40, CD40 (gene 958); assay: BSK_LPS_CD40: BioMAP Diversity Plus: LPS Assay for CD40 Biomarker Activity (AID 2283076); details: primary human HUVEC with PBMC; actives raise or lower the signal
Calls of active or inactive are those of the source. How the source made its calls: active means hit-call score of the fitted dose curve at least 0.9, where 1 is the maximum; inactive means score below 0.9.
Classes used: active, inactive

compound: COc1ccc(-n2nc(C(F)F)cc2-c2ccc(S(C)=O)cc2)cc1 (stereo not drawn)
discrete_label: active
//
compound: O=C(O)CCN(C1(C(=O)NO)CCCC1)S(=O)(=O)c1ccc(Oc2ccc(F)cc2)cc1
discrete_label: inactive
//
compound: Clc1nc(Cl)c(Cl)c(Cl)c1Cl
discrete_label: active
//
compound: CCOc1cccc(-n2cc(C(=O)N3CCN(c4cc(C(=O)O)c5ccccc5c4)CC3)nc2-c2ccc(C)cc2)c1
discrete_label: active
//
compound: CNS(=O)(=O)c1cc(C(=O)N2CCC(CCN3C4CCC3CC(n3c(C)nc5ccccc53)C4)(c3cccc(F)c3)CC2)c(Cl)cc1F (stereo not drawn)
discrete_label: active
//
compound: CCCCCCCCCCCCCCCO
discrete_label: active
//
compound: CCOCCOCCOCCO
discrete_label: inactive
//
compound: CC(C)CCCCCCOC(=O)c1ccc(C(=O)OCCCCCCC(C)C)c(C(=O)OCCCCCCC(C)C)c1
discrete_label: inactive

* * *

Assay: TOX21_p53_BLA_p5_viability: Viability Assessment in the Tox21 HCT-116 p53 Agonism Beta-lactamase Assay, Phase 5 (AID 2283600)
Excerpt: TOX21_p53_BLA_p5 is a cell-based, single-readout assay that uses HCT116, a human intestinal cell line, […] in a 1536-well plate.TOX21_p53_BLA_p5_viability is an assay readout measuring cellular ATP content and detected with CellTiter-Glo Luciferase-coupled ATP quantitation.TOX21_p53_BLA_p5_viability used a type of viability reporter where loss-of-signal activity can be used to understand changes in the cell viability. […]
Records with an inconclusive call do not appear. Activity calls are given as the source filed them. Rule for the calls: active = hit-call score of the fitted dose curve at least 0.9, where 1 is the maximum; inconclusive = response in the unintended direction; inactive = score below 0.9.
Classes used: active, inactive

molecule: O=c1n(CC2CO2)c(=O)n(CC2CO2)c(=O)n1CC1CO1 (configuration not stated)
discrete_label: inactive
--
molecule: COC(=O)c1ccccc1O
discrete_label: inactive
--
molecule: O=C(CCCCCCCCc1cccnc1)N1CCC(C=C(c2ccccc2)c2ccccc2)CC1
discrete_label: active
--
molecule: CCOC(=O)CC(CC(=O)OCC)(OC(C)=O)C(=O)OCC
discrete_label: inactive
--
molecule: CC(C)CCO
discrete_label: inactive
--
molecule: CCOCCO
discrete_label: inactive
--
molecule: CC1(C)C(=O)N(Br)C(=O)N1Br
discrete_label: inactive

* * *

Read-out: Signal transducer and activator of transcription 3 (Homo sapiens)
Test: LTEA_HepaRG_STAT3: Life Technologies and Expression Analysis (LTEA) Assay for Signal transducer and activator of transcription (STAT3) using HepaRG (AID 2283529)
Conditions: mRNA level, 48 h; actives raise or lower the signal
Procedure: LTEA_HepaRG is a cell based, multiplexed-readout assay that uses HepaRG, a human liver cell line, with measurements taken at 48 hours after chemical dosing on a 96-well plate.LTEA_HepaRG_STAT3 is one of 102 assay component(s) measured in the LTEA HepaRG cell culture assay. It is a marker of Cell proliferation, survival, death.Data from the assay component LTEA_HepaRG_STAT3 was analyzed into 1 endpoint. […]
The source made the active and inactive calls. How the source made its calls: active means hit-call score of the fitted dose curve at least 0.9, where 1 is the maximum; inactive means score below 0.9.

molecule: O=C(OC[C@H]1O[C@@H](OC(=O)c2cc(O)c(O)c(OC(=O)c3cc(O)c(O)c(O)c3)c2)[C@H](OC(=O)c2cc(O)c(O)c(OC(=O)c3cc(O)c(O)c(O)c3)c2)[C@@H](OC(=O)c2cc(O)c(O)c(OC(=O)c3cc(O)c(O)c(O)c3)c2)[C@@H]1OC(=O)c1cc(O)c(O)c(OC(=O)c2cc(O)c(O)c(O)c2)c1)c1cc(O)c(O)c(OC(=O)c2cc(O)c(O)c(O)c2)c1
outcome: inactive
--
molecule: CN(C)c1ccc(Cc2ccc(N(C)C)cc2)cc1
outcome: inactive
--
molecule: CNS(=O)(=O)c1cc(C(=O)N2CCC(CCN3C4CCC3CC(n3c(C)nc5ccccc53)C4)(c3cccc(F)c3)CC2)c(Cl)cc1F (stereo not drawn)
outcome: inactive
